# tested-on: human CB2R (Homo sapiens, UniProt P34972)
# Construct: host or cells: CHO cells
# Sequence (P34972 whole entry): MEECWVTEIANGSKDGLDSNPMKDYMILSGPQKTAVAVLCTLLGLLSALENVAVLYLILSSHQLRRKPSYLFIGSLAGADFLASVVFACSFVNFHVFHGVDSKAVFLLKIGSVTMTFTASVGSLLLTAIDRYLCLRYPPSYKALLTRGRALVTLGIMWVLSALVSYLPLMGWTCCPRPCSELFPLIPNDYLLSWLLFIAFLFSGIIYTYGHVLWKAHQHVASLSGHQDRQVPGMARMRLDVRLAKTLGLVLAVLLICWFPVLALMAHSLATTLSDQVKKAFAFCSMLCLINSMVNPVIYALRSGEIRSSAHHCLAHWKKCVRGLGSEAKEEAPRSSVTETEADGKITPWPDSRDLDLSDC
# procedure-text: CB2R mediated modulation of cAMP synthesis
# Format: cell-based
endpoint: pEC50
Answer as the number alone; pEC50 is minus log10 of concentration in mol/L.

CC(C)(C)c1cc(NC(=O)C2(S(=O)(=O)CC3CCOCC3)CCC2)on1 :: 8.21
Cc1nc(NC(=O)C(C)(C)S(=O)(=O)C(C)C)sc1C(C)(C)C :: 7.59
Cc1nc(NC(=O)C(C)(C)S(=O)(=O)C2CCOCC2)sc1C(C)(C)C :: 9.52
CC(C)(C)c1ccc(NC(=O)C(C)(C)S(=O)(=O)CC2CCOCC2)cc1 :: 8.48
CC(C)(C)c1cc(NC(=O)C(C)(C)S(=O)(=O)CC2CC2)on1 :: 7.90

Next compound, pEC50 to be filled in.
# get_value(readout='pEC50', item= CC(C)(C)c1cc(NC(=O)C(C)(C)S(=O)(=O)CC2CCC2)no1 )
8.47
